Measured pKd, listed per entry for reference.
Biological target: T1, hOX40-muFc (human; mouse, UniProt P43489 29-216)
T1 construct: range 1-216; Expressed in HEK293, purified on Protein A; also called recombinant human OX40; not shown: mouse IgG1-Fc (muFc) domain, residue 98 to residue 324 of P01868
T1 sequence (looked up): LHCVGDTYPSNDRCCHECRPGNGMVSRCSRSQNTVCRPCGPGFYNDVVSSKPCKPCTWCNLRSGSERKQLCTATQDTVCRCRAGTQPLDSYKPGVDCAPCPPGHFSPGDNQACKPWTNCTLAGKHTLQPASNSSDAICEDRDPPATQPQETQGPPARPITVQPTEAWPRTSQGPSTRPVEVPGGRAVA
Assay: SPR, BIAcore X100; antibody captured by anti-human Fc on CM5 chip, OX40-muFc as analyte, 1:1 model
Method: The binding kinetics of anti-hOX40 antibody to recombinant human OX40 was measured by surface plasmon resonance (SRP) method using a BIAcore X100 instrument. […] The association rate (kₒₙ) and dissociation rate (koff) were calculated using a simple one-to-one Languir binding model (BIAcore Evaluation Software version 3.2). The equilibrium dissociation constant (kD) is calculated as the ratio koff/kₒₙ. […]
Note on pKd: it is the negative log10 of concentration, concentration in mol/L.

Worked examples follow.
[[record]]
binder = "O3 mAb (antibody, IgG4, V domains shown, IgG4, lambda; expressed in HEK293; also called 03 mAb; not shown: human immunoglobulin gamma4 (IgG4) constant region, P01861; human immunoglobulin lambda light chain constant region, A0M8Q6) VH: QVQLQQWGAGLLKPSETLSLTCGFNGEYFTDYFWTWVRQPPGEALEWLALIYWDDDERYSPSLKNRLIITKDISKNQVVLTMTHMEPADTGTYYCARWGGSLMNAFDVWGPGTMVTVSS VL: QSALIQPASVSGSPGQSITISCTGTSSDVGGYNYVSWYQRHPGKAPRLMIYDVTKRPSGVSNRFSGSKSGNTASLTISGLQAEDEADYYCSSYTSSSIAVFGGGTQLTVL"
endpoint = "pKd"
experimental_result = 8.86

[[record]]
binder = "anti-OX40 21#VHnew-L80 mAb (antibody, IgG4, V domains shown, Formatted as IgG according to Embodiment 3 (IgG4); not shown: human immunoglobulin gamma4 (IgG4) constant region, P01861; human immunoglobulin kappa light chain constant region, P01834) VH: QVQLQQSGPGLVKPSQTLSLTCAISGDSVSSNGVSWDWIRQSPSRGLEWLGRTYYRSKWYNEYAVSVENRITINPDTSKNQFSLQLNSVTPEDTAIYFCVRNDYFFDLWGRGTLVTVSS VL: EIVLTQSPATLSLSPGERATLSCRASQSVGSYLAWYQQKPGQAPRLLIYDASNRATGIPARFSGSGSGTDFTLTISSLEPEDFAVYYCQQRSNWPPGYTFGQGTKVEIK"
endpoint = "pKd"
experimental_result = 7.99

[[record]]
binder = "O21 mAb (antibody, IgG4, V domains shown, also called 021 mAb; anti-OX40 21# mAb; not shown: human immunoglobulin gamma4 (IgG4) constant region, P01861; human immunoglobulin kappa light chain constant region, P01834) VH: QVQLQQSGPGLVKPSQTLSLTCAISGDSVSSNSVSWDWIRQSPSRGLEWLGRTYYRSKWYNEYAVSVESRITINPDTSKNQFSLQLNSVTPEDTAIYFCVRNNYFFDLWGRGTLVTVSS VL: EIVLTQSPATLSLSPGERATLSCRASQSVSSYLAWYQQKPGQAPRLLIYDASDRATGIPARFSGSGSGTDFTLTISSLEPEDFAVYYCQLRSNWPPGYTFGQGTKVEIK"
endpoint = "pKd"
experimental_result = 7.84


Then there is this binder:
Fill in: pKd of anti-OX40 21#H96-L80 mAb (antibody, V domains shown, Formatted as IgG according to Embodiment 3 (IgG4); also called H96-L80 IgG4; not shown: human immunoglobulin gamma4 (IgG4) constant region, P01861; human immunoglobulin kappa light chain constant region, P01834) VH: QVQLQQSGPGLVKPSQTLSLTCAISGDSVSSNSVSWDWIRQSPSRGLEWLGRTYYRSKWYNEYAVSVESRITINPDTSKNQFSLQLNSVTPEDTAIYFCVRNDYFFDLWGRGTLVTVSS VL: EIVLTQSPATLSLSPGERATLSCRASQSVGSYLAWYQQKPGQAPRLLIYDASNRATGIPARFSGSGSGTDFTLTISSLEPEDFAVYYCQQRSNWPPGYTFGQGTKVEIK is ___
8.10
